MIC E. coli NCTC9001 values, listed per item
Tested on: Escherichia coli
Test: MIC, compound in combination with a second agent (broth microdilution)
Format: cell-based
Conditions: 1:1 (wt:wt) combination with Rifampicin; MIC = total drug concentration; strain NCTC9001
Where a name gives a salt, the structure may show the parent alone. Bridge positions count the residues as written; N and C are the ends. Square brackets hold non-standard residues; d marks the D form. Peptide text beside a SMILES is read from it. * marks the point of attachment. ξ: configuration not given here. Thr(3ξ) = CC(O)[C@H](N)C(=O)O; X9 = CC(C)[C@H](N)CCC(=O)*; Dab = NCC[C@H](N)C(=O)O; βAla = NCCC(=O)O
// note: answer is a bare numeric in micrograms/mL

Here are 2 compounds together with their reported answers.
CC(C)C[C@@H]1NC(=O)[C@@H](Cc2ccccc2)NC(=O)[C@H](CCN)NC(=O)[C@@H](NC(=O)[C@H](CCN)NC(=O)[C@@H](NC(=O)[C@H](CCN)NC(=O)CC(N)C2CCCCC2)C(C)O)CCNC(=O)[C@H](C(C)O)NC(=O)[C@H](CCN)NC(=O)[C@H](CCN)NC1=O (mixture of isomers) [Example 39, trifluoroacetate salt] :: 0.125
CC(C)C[C@@H]1NC(=O)[C@@H](Cc2ccccc2)NC(=O)[C@H](CCN)NC(=O)[C@@H](NC(=O)[C@H](CCN)NC(=O)[C@@H](NC(=O)CCN)C(C)O)CCNC(=O)[C@H](C(C)O)NC(=O)[C@H](CCN)NC(=O)[C@H](CCN)NC1=O (stereo partly drawn) [Example 3, 3-Aminopropanoyl polymyxin B nonapeptide] (H-[βAla][Thr(3ξ)][Dab][Dab][Dab][dF]L[Dab][Dab][Thr(3ξ)]; lactam 4-C) :: 0.25

Indicate its recorded MIC E. coli NCTC9001; the compound in question is CC(C)C[C@@H]1NC(=O)[C@@H](Cc2ccccc2)NC(=O)[C@H](CCN)NC(=O)[C@@H](NC(=O)[C@H](CCN)NC(=O)[C@@H](NC(=O)CC[C@@H](N)C(C)C)C(C)O)CCNC(=O)[C@H](C(C)O)NC(=O)[C@H](CCN)NC(=O)[C@H](CCN)NC1=O (stereo partly drawn) [Example 22] (X9-[Thr(3ξ)][Dab][Dab][Dab][dF]L[Dab][Dab][Thr(3ξ)]; lactam 3-C)
0.125

---

Test system: Acinetobacter baumannii
Assay: MIC, sole activity (no second agent)
Format: cell-based
Settings: in the absence of Rifampicin; strain ATCC13424
Structures can show the parent of a compound that is named as a salt. Numbered stars: 1 amine (or outer) side, 2 acyl side, 3 side chain; on linkers, the order of the positions; unused ones are H or OH. Bridge positions count the residues as written; N and C are the ends. Square brackets hold non-standard residues; d marks the D form. Peptide text beside a SMILES is read from it. * marks the point of attachment. ξ: configuration not given here. ξβ3hPhg = O=C(CC(N[*:1])c1ccccc1)[*:2]; X6 = N[C@@H](CC(=O)*)c1ccc2ccccc2c1; ξβ3hGly(cHex) = NC(CC(=O)*)C1CCCCC1; Thr(3ξ) = CC(O)[C@H](N)C(=O)O; Dab = NCC[C@H](N)C(=O)O; Inp = O=C(O)C1CCNCC1
experimental-endpoint: MIC A. baumannii ATCC13424 (micrograms/mL)
// note: answer is a bare numeric in micrograms/mL

Write down measured MIC A. baumannii ATCC13424 (Acinetobacter baumannii) for this compound. CC(C)C[C@@H]1NC(=O)[C@@H](Cc2ccccc2)NC(=O)[C@H](CCN)NC(=O)[C@@H](NC(=O)[C@H](CCN)NC(=O)[C@@H](NC(=O)CC(N)C2CCCCC2)C(C)O)CCNC(=O)[C@H](C(C)O)NC(=O)[C@H](CCN)NC(=O)[C@H](CCN)NC1=O (stereo partly drawn) [Example 10] ({ξβ3hGly(cHex)}-[Thr(3ξ)][Dab][Dab][Dab][dF]L[Dab][Dab][Thr(3ξ)]; lactam 3-C)
1

Write down measured MIC A. baumannii ATCC13424 (Acinetobacter baumannii) for this compound. CC(C)C[C@@H]1NC(=O)[C@@H](Cc2ccccc2)NC(=O)[C@H](CCN)NC(=O)[C@@H](NC(=O)[C@H](CCN)NC(=O)[C@@H](NC(=O)CC(N)c2ccccc2)C(C)O)CCNC(=O)[C@H](C(C)O)NC(=O)[C@H](CCN)NC(=O)[C@H](CCN)NC1=O (stereo partly drawn) [Example 28] (ξβ3hPhg-[Thr(3ξ)][Dab][Dab][Dab][dF]L[Dab][Dab][Thr(3ξ)]; lactam 3-C)
1

Write down measured MIC A. baumannii ATCC13424 (Acinetobacter baumannii) for this compound. CC(C)C[C@@H]1NC(=O)[C@@H](Cc2ccccc2)NC(=O)[C@H](CCN)NC(=O)[C@@H](NC(=O)[C@H](CCN)NC(=O)[C@@H](NC(=O)C[C@H](N)c2ccc3ccccc3c2)C(C)O)CCNC(=O)[C@H](C(C)O)NC(=O)[C@H](CCN)NC(=O)[C@H](CCN)NC1=O (stereo partly drawn) [Example 38, trifluoroacetate salt] (X6-[Thr(3ξ)][Dab][Dab][Dab][dF]L[Dab][Dab][Thr(3ξ)]; lactam 3-C)
1

Write down measured MIC A. baumannii ATCC13424 (Acinetobacter baumannii) for this compound. CC(C)C[C@@H]1NC(=O)[C@@H](Cc2ccccc2)NC(=O)[C@H](CCN)NC(=O)[C@@H](NC(=O)[C@H](CCN)NC(=O)[C@@H](NC(=O)C2CCNCC2)C(C)O)CCNC(=O)[C@H](C(C)O)NC(=O)[C@H](CCN)NC(=O)[C@H](CCN)NC1=O (stereo partly drawn) [Example 29] (H-[Inp][Thr(3ξ)][Dab][Dab][Dab][dF]L[Dab][Dab][Thr(3ξ)]; lactam 4-C)
2

---

Test system: P. aeruginosa ATCC 27853
Conditions: ATCC 27853, in vivo, iv, 2 mg/kg, 6 h
Where a name gives a salt, the structure may show the parent alone. Bridge positions count the residues as written; N and C are the ends. Square brackets hold non-standard residues; d marks the D form. Peptide text beside a SMILES is read from it. * marks the point of attachment. ξ: configuration not given here. Acetyl(2-(piperazin-1-yl)) = O=C(CN1CCNCC1)*; Thr(3ξ) = CC(O)[C@H](N)C(=O)O; Dab = NCC[C@H](N)C(=O)O
experimental-endpoint: Log reduction from vehicle (CFU/g) (log CFU/g)
// note: answer is a bare numeric in log CFU/g

Indicate its recorded Log reduction from vehicle (CFU/g); the molecule in question is CC(C)C[C@@H]1NC(=O)[C@@H](Cc2ccccc2)NC(=O)[C@H](CCN)NC(=O)[C@@H](NC(=O)[C@H](CCN)NC(=O)[C@@H](NC(=O)CN2CCNCC2)C(C)O)CCNC(=O)[C@H](C(C)O)NC(=O)[C@H](CCN)NC(=O)[C@H](CCN)NC1=O (stereo partly shown) [Example 52, trifluoroacetate salt] ({Acetyl(2-(piperazin-1-yl))}-[Thr(3ξ)][Dab][Dab][Dab][dF]L[Dab][Dab][Thr(3ξ)]; lactam 3-C)
−0.14

---

MIC E. coli NCTC9001 values, listed per item
System: Escherichia coli
Assay: MIC, sole activity (no second agent)
Assay type: cell-based
Conditions: in the absence of Rifampicin; strain NCTC9001
Bridge positions count the residues as written; N and C are the ends. Square brackets hold non-standard residues; d marks the D form. Peptide text beside a SMILES is read from it. * marks the point of attachment. ξ: configuration not given here. ξβ3hGly(cHex) = NC(CC(=O)*)C1CCCCC1; Thr(3ξ) = CC(O)[C@H](N)C(=O)O; X9 = CC(C)[C@H](N)CCC(=O)*; Dab = NCC[C@H](N)C(=O)O

CC(C)C[C@@H]1NC(=O)[C@@H](Cc2ccccc2)NC(=O)[C@H](CCN)NC(=O)[C@@H](NC(=O)[C@H](CCN)NC(=O)[C@@H](NC(=O)CC[C@@H](N)C(C)C)C(C)O)CCNC(=O)[C@H](C(C)O)NC(=O)[C@H](CCN)NC(=O)[C@H](CCN)NC1=O (some centres unmarked) [Example 22] (X9-[Thr(3ξ)][Dab][Dab][Dab][dF]L[Dab][Dab][Thr(3ξ)]; lactam 3-C) :: >32 micrograms/mL

Please turn your attention to the following entry.
Indicate its recorded MIC E. coli NCTC9001; the compound in question is CC(C)C[C@H]1NC(=O)[C@H](CCN)NC(=O)[C@@H](NC(=O)[C@H](CCN)NC(=O)[C@@H](NC(=O)CC(N)C2CCCCC2)C(C)O)CCNC(=O)[C@H](C(C)O)NC(=O)[C@H](CCN)NC(=O)[C@H](CCN)NC(=O)[C@H](C(C)O)NC1=O (stereo partly drawn) [Example 50] ({ξβ3hGly(cHex)}-[Thr(3ξ)][Dab][Dab][Dab][dL][Thr(3ξ)][Dab][Dab][Thr(3ξ)]; lactam 3-C)
>32 micrograms/mL
